Tested on: H-MEC-1
Experiment: Inhibition of cells growth by colorimetric assay (SRB), H-MEC-1
Assay type: cell-based
Conditions: Homo sapiens, HMEC-1, 48 h, H-MEC-1, 48 hours exposure, SRB
measuredAttribute: GI50 (nM)
Report the figure in nM without appending any unit label.

Prompt: GET GI50 where system = H-MEC-1 and item = C=COC(=O)Oc1c(C)c2c(c3c1[C@H]1SC[C@]4(NCCc5c4[nH]c4ccccc54)C(=O)COC[C@@H]3N3C1[C@H]1c4c(cc(C)c(OC)c4O)C[C@@H]([C@@H]3O)N1C)OCO2 (some centres unmarked)
Completion: 0.521

Prompt: Jot down GI50 (H-MEC-1) of C=COC(=O)Oc1c(C)c2c(c3c1[C@H]1SC[C@]4(NCCc5c4[nH]c4ccccc54)C(=O)COC[C@@H]3N3C1[C@H]1c4c(cc(C)c(OC)c4O)C[C@@H]([C@@H]3C#N)N1C)OCO2 (some centres unmarked) .
Completion: 4

Prompt: Report GI50 on H-MEC-1 for this entry: COc1c(C)cc2c(c1OC(C)(C)C)[C@@H]1C3[C@@H]4SC[C@]5(NCCc6c5[nH]c5ccccc65)C(=O)COC[C@@H](c5c6c(c(C)c(OC(=O)OC(C)(C)C)c54)OCO6)N3[C@@H](O)[C@H](C2)N1C (some centres unmarked)
Completion: 20.7

Prompt: Please look at CCCCCCCC(=O)Oc1c(C)c2c(c3c1[C@H]1SC[C@]4(NCCc5c4[nH]c4ccccc54)C(=O)COC[C@@H]3N3C1[C@H]1c4c(cc(C)c(OC)c4O)C[C@@H]([C@@H]3C#N)N1C)OCO2 (some centres unmarked) and tell me its recorded GI50 on H-MEC-1.
Completion: 394

Prompt: State recorded GI50 with H-MEC-1, entry COc1c(C)cc2c(c1OC(=O)OC(C)(C)C)[C@@H]1C3[C@@H]4SC[C@]5(NCCc6c5[nH]c5ccccc65)C(=O)COC[C@@H](c5c6c(c(C)c(OC(=O)OC(C)(C)C)c54)OCO6)N3[C@@H](C#N)[C@H](C2)N1C (some centres unmarked) , no comment.
Completion: 10.2

Prompt: // fetch GI50; item: COc1c(C)cc2c(c1O)[C@@H]1C3[C@@H]4SC[C@]5(NCCc6c5[nH]c5ccccc65)C(=O)COC[C@@H](c5c6c(c(C)c(OC(=O)CCCl)c54)OCO6)N3[C@@H](C#N)[C@H](C2)N1C (some centres unmarked) ; system: H-MEC-1
Completion: 132

Prompt: // fetch GI50; item: COc1c(C)cc2c(c1O)[C@@H]1C3[C@@H]4SC[C@]5(NCCc6c5[nH]c5ccccc65)C(=O)COC[C@@H](c5c6c(c(C)c(OC(=O)C(F)(F)F)c54)OCO6)N3[C@@H](C#N)[C@H](C2)N1C (some centres unmarked) ; system: H-MEC-1
Completion: 4.17

Prompt: Fill: GI50 (H-MEC-1) for this compound COc1c(C)cc2c(c1O)[C@@H]1C3[C@@H]4SC[C@]5(NCCc6c5[nH]c5ccc(F)cc65)C(=O)COC[C@@H](c5c6c(c(C)c(OC(C)=O)c54)OCO6)N3[C@@H](O)[C@H](C2)N1C (some centres unmarked)
Completion: 2.6

###

Conditions: s9, 60 min, 1 μM
Assign Human Liver S9 Metabolic Stability (% remaining) to each entry below.

Prompt: Identify measured Human Liver S9 Metabolic Stability (% remaining) associated with COc1c(C)cc2c(c1O)[C@@H]1C3[C@@H]4SC[C@]5(NCCc6c5[nH]c5cc(F)ccc65)C(=O)COC[C@@H](c5c6c(c(C)c(OC(C)=O)c54)OCO6)N3[C@@H](O)[C@H](C2)N1C (stereo partly shown)
Completion: 9 % remaining

Prompt: In one line, give reported Human Liver S9 Metabolic Stability (% remaining) of the entry COc1c(C)cc2c(c1O)[C@@H]1C3[C@@H]4SC[C@]5(NC(C)Cc6c5[nH]c5ccc(F)cc65)C(=O)COC[C@@H](c5c6c(c(C)c(OC(C)=O)c54)OCO6)N3[C@@H](O)[C@H](C2)N1C (stereo partly shown) [Compound 42] .
Completion: 5 % remaining

Prompt: Find the measured Human Liver S9 Metabolic Stability (% remaining) of COc1c(C)cc2c(c1O)[C@@H]1C3[C@@H]4SC[C@]5(NCCc6c5[nH]c5ccc(C)cc65)C(=O)COC[C@@H](c5c6c(c(C)c(OC(C)=O)c54)OCO6)N3[C@@H](O)[C@H](C2)N1C (stereo partly shown) and report it.
Completion: 6 % remaining

Prompt: For COc1c(C)cc2c(c1O)[C@@H]1C3[C@@H]4SC[C@]5(NC(C)Cc6c5[nH]c5ccc(F)cc65)C(=O)COC[C@@H](c5c6c(c(C)c(OC(C)=O)c54)OCO6)N3[C@@H](O)[C@H](C2)N1C (stereo partly shown) [Compound 41] , write its Human Liver S9 Metabolic Stability (% remaining).
Completion: 7 % remaining
